System tested: OGT (O-GlcNAc transferase) (Homo sapiens)
Construct: full-length OGT, recombinant, purified; plasmid gift of D. J. Vocadlo
Sequence (O15294 2-1036 isoform O15294-3): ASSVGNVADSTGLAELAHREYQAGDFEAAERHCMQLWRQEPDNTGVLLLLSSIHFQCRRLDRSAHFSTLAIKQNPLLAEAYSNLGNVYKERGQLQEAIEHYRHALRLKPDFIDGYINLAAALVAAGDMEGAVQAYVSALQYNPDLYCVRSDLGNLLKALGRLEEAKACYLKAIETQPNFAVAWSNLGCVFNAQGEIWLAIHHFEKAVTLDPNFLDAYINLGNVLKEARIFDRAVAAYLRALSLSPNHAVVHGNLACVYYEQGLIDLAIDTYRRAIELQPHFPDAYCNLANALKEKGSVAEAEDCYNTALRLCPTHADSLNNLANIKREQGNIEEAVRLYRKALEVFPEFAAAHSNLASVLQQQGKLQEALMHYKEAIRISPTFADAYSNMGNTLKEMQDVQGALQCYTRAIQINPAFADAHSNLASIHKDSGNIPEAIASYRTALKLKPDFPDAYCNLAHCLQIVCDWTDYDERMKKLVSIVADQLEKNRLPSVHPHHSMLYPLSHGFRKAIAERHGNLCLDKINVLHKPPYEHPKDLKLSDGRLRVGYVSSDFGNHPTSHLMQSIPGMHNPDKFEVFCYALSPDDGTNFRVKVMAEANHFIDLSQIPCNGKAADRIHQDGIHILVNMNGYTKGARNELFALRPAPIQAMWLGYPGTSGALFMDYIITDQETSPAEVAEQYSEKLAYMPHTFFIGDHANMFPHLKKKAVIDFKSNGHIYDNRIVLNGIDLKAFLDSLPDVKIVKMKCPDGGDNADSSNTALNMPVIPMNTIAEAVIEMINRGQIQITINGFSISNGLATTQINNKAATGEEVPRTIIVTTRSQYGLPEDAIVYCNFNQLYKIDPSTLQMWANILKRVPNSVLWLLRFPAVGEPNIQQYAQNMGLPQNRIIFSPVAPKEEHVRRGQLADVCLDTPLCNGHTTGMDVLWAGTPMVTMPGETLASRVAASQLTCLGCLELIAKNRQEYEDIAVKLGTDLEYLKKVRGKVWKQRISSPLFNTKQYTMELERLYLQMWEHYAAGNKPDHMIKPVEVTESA
Experiment notes: UDP-Glo glycosyltransferase assay, luminescence
Format: biochemical
Condition context: 250 nM OGT, 125 μM CKII peptide, 40 μM UDP-GlcNAc, pH 7.4; time-dependent, not fully UDP-GlcNAc competitive
Readout: IC50 (µM)
Please respond with the number in µM and leave the unit unwritten.

q: // IC50 lookup, key: `O=C1C[C@@H](c2ccc(O)c(-c3c(O)cc(O)c4c3O[C@H](c3ccc(O)cc3)CC4=O)c2)Oc2cc(O)cc(O)c21`
a: 21.8
